Data credit: patent US20250090677A1

tgt: T1, recombinant protein CDH6 (UniProt P55285 54-615)
T1 construct: also called CDH6 recombinant protein; CDH6 antigen
T1 sequence (looked up): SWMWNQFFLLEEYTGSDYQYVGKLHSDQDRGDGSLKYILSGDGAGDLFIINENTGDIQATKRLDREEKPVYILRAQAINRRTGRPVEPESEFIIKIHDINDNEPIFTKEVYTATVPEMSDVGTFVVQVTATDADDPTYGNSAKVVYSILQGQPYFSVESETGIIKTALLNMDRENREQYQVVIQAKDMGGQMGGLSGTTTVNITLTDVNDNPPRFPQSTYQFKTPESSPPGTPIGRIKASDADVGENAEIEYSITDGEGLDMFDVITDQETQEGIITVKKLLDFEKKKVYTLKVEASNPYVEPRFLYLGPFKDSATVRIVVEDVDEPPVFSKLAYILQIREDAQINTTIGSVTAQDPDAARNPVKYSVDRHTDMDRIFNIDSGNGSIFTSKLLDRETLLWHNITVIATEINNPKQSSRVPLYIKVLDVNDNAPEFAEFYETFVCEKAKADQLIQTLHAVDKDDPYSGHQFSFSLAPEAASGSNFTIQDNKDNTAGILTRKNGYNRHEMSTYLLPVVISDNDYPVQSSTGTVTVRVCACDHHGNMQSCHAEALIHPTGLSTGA
assay.overview: ELISA, CDH6 coated at 1 ug/mL
outcome.measure: sensitivity

CL069439 antibody (antibody, V domains shown, Mouse monoclonal antibody from hybridoma, purified from ascites with Protein A/G; also called #16; No. 16) VH: EVQLQQSGTELVRTGASVKISCKASGYSFTGYYIHWIKQSHGESLEWIGYISCFNGDTSYNQNFKDRATFNVDTSSSTAYMQFISLTSEDSAVYYCVRGRYGNFNYFDYWGQGTTLTVSS VL: DIVLTQSPASLAVSLGQRATISCRASESVEFYGTSLMQWFQQKPGHPPQLLIYATSNVDSGVPARFSASGSGTDFSLNIHPVEEADIAMYFCQQSRRIPWTFGGGTKLEIK = ≤ 1 ng/mL
